I'd be grateful if you could share measured RP-LC retention time for these entries.
Assay: gradient 5% acetonitrile 3 min, to 50% in 2 min, to 85% in 15 min, held 3 min, 100 µL/min
Conditions: column: Zorbax Extend-C18 2.1 x 50 mm; eluents: water / acetonitrile, 0.1% formic acid
Write it as a number; the unit s goes unstated.

Read off the recorded RP-LC retention time for COc1ccc(NC(=O)COc2nc(C)nc3ccccc23)c(OC)c1
708

Find the measured RP-LC retention time of CC1CCN(CCNC(=O)c2nc(CCS(=O)(=O)c3ccccc3)no2)CC1 and report it.
635

Kindly indicate its recorded RP-LC retention time. Item: O=C1COc2ccc(-c3csc(NC(=O)C4CCCO4)n3)cc2N1 (centres undefined)
715

Quickly give me recorded RP-LC retention time for CCCCC(=O)N1CC(c2nc(-c3cccnc3)no2)C2(CCOCC2)C1 (centres undefined)
651

Identify the reported RP-LC retention time for the following entry. O=C(Cc1csc2nc(-c3ccccc3)cn12)NC1CCCCCC1
808

Give a short answer stating reported RP-LC retention time for O=C(CC1CCN(C(=O)Nc2cccc(Cl)c2)CC1)N1CCN(c2ccccn2)CC1 .
630

Return value of RP-LC retention time for input COc1cc(Cl)c(NC(=O)C2CCN(S(=O)(=O)c3cn(C(C)C)cn3)CC2)c(OC)c1 , no commentary.
797

Return reported RP-LC retention time. Input molecule: O=C(Cn1ccc2ccc(N3CCOCC3)nc21)NC1CCN(Cc2ccccc2)CC1
638

Annotate the molecule CC(C)(C)c1ccc(S(=O)(=O)N2CCC3(CC2)NCCN=C3NCc2ccccc2)cc1 with its measured RP-LC retention time.
854

Quick one: give measured RP-LC retention time for COc1ccc(-c2ncc3c(n2)CCN(C(=O)Nc2ccccc2OC)C3)cc1
905

Determine from records and report RP-LC retention time for Cc1nc(-c2csc(S(=O)(=O)N3CCCC(C(=O)Nc4ccccc4)C3)c2)no1 (centres undefined)
927

Please report the measured RP-LC retention time for COc1ccccc1N1CCN(c2ncccc2-c2nc(-c3ccccc3)no2)CC1
1140

Return the recorded RP-LC retention time value; entry: CCCc1nnc(NC(=O)C2CCN(C(=O)c3ccc(F)cc3)CC2)s1
721

Identify measured RP-LC retention time corresponding to CCn1nc(C)c(CCN(C)C(=O)Nc2cccc(C(=O)OC)c2)c1C
644

Give me measured RP-LC retention time, please, for this molecule: O=C1C(N2CCN(S(=O)(=O)c3ccccc3Cl)CC2)CCN1CCc1ccccc1 (centres undefined)
672

Give reported RP-LC retention time value for Cc1cc(F)ccc1NC(=O)CN1C(=O)CCc2cc(S(=O)(=O)N3CCCCC3C)ccc21 (centres undefined)
920

Supply RP-LC retention time value. Item: CCCCc1ccc(NC(=O)Cn2nc3c(Sc4ccccc4)nccn3c2=O)cc1
1100

Quote RP-LC retention time reported for O=C(Nc1nc2ccccc2s1)C1CCCN(c2ncnc3c2nc2n3CCCCC2)C1 (centres undefined) please.
909

Report RP-LC retention time, nothing else, for this molecule: CC(=O)Nc1ccc(NC(=O)C2CCCN(c3nccnc3Sc3ccc(C)cc3)C2)cc1 (centres undefined)
894

# return recorded RP-LC retention time for entry COc1ccc(Cl)cc1NC(=O)NC1CCN(c2nc3ccccc3n(C)c2=O)CC1
1010

Specify RP-LC retention time for CC(=O)OCc1cc(=O)n(C)c2c3c4c(cc12)c(C)cc(=O)n4CO3 and stop.
669

Return the recorded RP-LC retention time value; entry: Cn1nc(-c2ccc(NC(=O)c3cccc4ccccc34)cc2)ccc1=O
763

Report RP-LC retention time, nothing else, for this molecule: Cc1cccc(NC(=O)N2CCCC2C(=O)N(C)C)c1 (centres undefined)
643

Identify the reported RP-LC retention time for the following entry. CN1CCCCc2cc(C(=O)NCCN(C)C3CCCCC3)sc21
687

Please list RP-LC retention time recorded for the molecule COC(=O)c1ccc(NC(=O)CSc2cc(N3CCN(c4ccccc4OC)CC3)ncn2)cc1
970

Read the entry COc1ccc(-c2noc(C3CC(=O)N(c4cc(C)cc(C)c4)C3)n2)cc1 (centres undefined) and write its reported RP-LC retention time.
1040

# return recorded RP-LC retention time for entry CCNc1nc(C)cc(N2CCN(C(=O)Nc3cc(Cl)ccc3OC)CC2)n1
709

Please indicate RP-LC retention time recorded for O=C(NCc1cccs1)C(=O)Nc1ccncc1
548

Look up RP-LC retention time of Cc1nc(Nc2ccc(Cl)cn2)sc1C(=O)NCCN1CCCCC1 and report it.
637

Give the measured RP-LC retention time for CN1C(=O)c2cccnc2Sc2cc(NC(=O)c3cc(Cl)ccc3F)ccc21
859

For the molecule CC(C)(C)c1ccc(C(=O)NC2CCN(c3cc(-c4ccc(F)cc4)[nH]n3)C2)cc1 (centres undefined) , report RP-LC retention time.
899

Look up and state reported RP-LC retention time for Cc1cccc(Cn2cc(S(=O)(=O)N3CCOCC3)ccc2=O)c1
789

Find the measured RP-LC retention time of Cc1ccc(S(=O)(=O)N2CCN(C3CCN(Cc4cccnc4)C3=O)CC2)c(C)c1 (centres undefined) and report it.
610

Quick one: give measured RP-LC retention time for COC(=O)c1ccc(N2C=C(C(=O)N3CCCC3)S(=O)(=O)c3ccc(Cl)cc32)cc1
842

Provide measured RP-LC retention time value, entry: CCNS(=O)(=O)c1cccnc1Nc1cccc(Br)c1
1040

Tell us which RP-LC retention time value is on record for CC(=O)c1ccc(NC(=O)Cn2nc3c4cc(-c5ccc(Cl)cc5)nn4ccn3c2=O)cc1
894

Provide only the value of recorded RP-LC retention time for CCCn1ccc2sc(C)c(C(=O)NCc3ccccc3OCC)c2c1=O
982

Give a short answer stating reported RP-LC retention time for Cc1cnc(C2CCOCC2)n1C1CCCN(Cc2c[nH]c3ccccc23)C1 (centres undefined) .
557

Recall and state the measured RP-LC retention time for CCOc1ccc(-c2nnc(SCC(=O)N3CCCC3)o2)cc1 .
757

* * *

Assay: gradient 5% acetonitrile 3 min, to 50% in 2 min, to 85% in 15 min, held 3 min, 100 µL/min
Conditions: column: Zorbax Extend-C18 2.1 x 50 mm; eluents: water / acetonitrile, 0.1% formic acid
reported.endpoint: RP-LC retention time (s)
Write the number in s without appending the unit.

In one line, give reported RP-LC retention time of the entry O=C(Nc1cccnc1)C1CCN(S(=O)(=O)c2cc(-c3noc(C4CCC4)n3)cs2)CC1 .
762

Determine its reported RP-LC retention time: Cc1ccc(CN2CCN(C3CCN(C(=O)Nc4ccc(C)cc4)CC3)C(=O)C2=O)cc1
768

Dear colleague, please send me the reported RP-LC retention time for CCc1ccc(CNC(=O)C2CCN(C(=O)c3ncn4c3COC(c3ccc(F)cc3)C4)CC2)cc1 (centres undefined) when you can.
846

Provide measured RP-LC retention time value, entry: Cc1ccc(-c2noc(-c3ccc(=O)n(Cc4ccc(Cl)cc4)c3)n2)cc1
1230

* * *

Experiment: gradient 5% acetonitrile 3 min, to 50% in 2 min, to 85% in 15 min, held 3 min, 100 µL/min
Settings: column: Zorbax Extend-C18 2.1 x 50 mm; eluents: water / acetonitrile, 0.1% formic acid
Values of RP-LC retention time greater than or equal to 800 s map to Fulfilled; values below map to Not fulfilled.

// inclusive: RP-LC retention time at least 800 s? input: COCCC(=O)N1CCC(c2noc(C3CC3)n2)C1 (centres undefined)
Not fulfilled

Quick check, RP-LC retention time >= 800 s? CCOc1ccc(N(C)C(=O)C2CCN(S(=O)(=O)c3ccc4c(c3)sc(=O)n4C)CC2)cc1
Fulfilled

Given O=C(CC1CCN(C(=O)c2ccc3oc(C4CC4)nc3c2)CC1)NCc1ccccn1 , state whether its RP-LC retention time is at least 800 s.
Not fulfilled

Determine whether this compound has RP-LC retention time no lower than 800 s: O=C(Cc1cccc(F)c1)NC1CCN(c2ccccc2)C1=O (centres undefined)
Not fulfilled

Quick check, RP-LC retention time >= 800 s? Brc1cccc(-c2nnc3sc(-c4ccncc4)nn23)c1
Fulfilled

Identify whether the reported RP-LC retention time of the following compound is 800 s or greater: Cc1ncc2c(n1)C[C@@H]1CC[C@H]2N1C(=O)Nc1ccccc1F
Not fulfilled

Does RP-LC retention time meet or surpass 800 s for O=C(C1CCN(S(=O)(=O)c2ccc(-c3noc(Cc4ccc(F)cc4)n3)cc2)CC1)N1CCCC1 ?
Fulfilled

Textbook exercise: given the entry Cc1nc(-c2ccc(OCC(C)C)c(C#N)c2)sc1C(=O)O , state whether its RP-LC retention time is greater than or equal to 800 s.
Fulfilled

Determine whether measured RP-LC retention time meets or exceeds 800 s for Cn1nc(C(=O)N2CCCC(C(=O)NC3CC3)C2)c2c1CCN(C(=O)Cc1cccc(F)c1)C2 (centres undefined)
Not fulfilled

Given the entry COc1ccccc1-n1ccnc(NC(=O)Nc2ccc(F)cc2)c1=O , answer whether its RP-LC retention time meets or surpasses 800 s.
Fulfilled

Exam item: decide whether the reported RP-LC retention time for Cc1ccc(NC(=O)N2CCC(n3c(-c4ccoc4)nc4cccnc43)C2)cc1F (centres undefined) is at least 800 s.
Not fulfilled

Please check the record O=C(Nc1ccc(F)cc1F)c1ccc(N2C(=O)CCC2=O)cc1 and state if its RP-LC retention time is at or above 800 s.
Not fulfilled

Reported RP-LC retention time at or above 800 s? C=CCN1CCN(C(=O)c2cn(-c3ccc(-c4nc(C(C)(C)C)no4)cn3)cn2)CC1
Not fulfilled

Evaluate CCC(=O)N1CCc2cc(N3CC(C(=O)NCc4cccnc4)CC3=O)ccc21 (centres undefined) : RP-LC retention time at minimum 800 s?
Not fulfilled

Tell me whether RP-LC retention time is at least 800 s here: Cn1c(CNC(=O)c2cccc(N3CCNC(c4ccccc4)C3)n2)nc2ccccc21 (centres undefined)
Not fulfilled

Identify whether the reported RP-LC retention time of the following compound is 800 s or greater: CC(=O)Nc1nonc1-c1nnc(SCC(=O)Nc2nc(-c3ccccc3)cs2)n1C
Fulfilled

Exam item: decide whether the reported RP-LC retention time for Cc1cnc(C2CC2)n1CCNS(=O)(=O)c1ccccc1F is at least 800 s.
Not fulfilled

Textbook exercise: given the entry O=C(C1=NN(Cc2ccc(F)cc2)c2cc(Cl)ccc2S1(=O)=O)N1CCOCC1 , state whether its RP-LC retention time is greater than or equal to 800 s.
Fulfilled

Decide: is the reported value of RP-LC retention time for CCn1c(N2CCN(C(=O)Nc3cc(OC)cc(OC)c3)CC2)nc2ccccc21 equal to or greater than 800 s?
Not fulfilled

# bool: RP-LC retention time of CCN(CC)C(=O)c1cnc2snc(C)c2c1N1CCC(C(=O)Nc2cc(C)c(Cl)cc2OC)CC1 >= 800 s
Fulfilled

Tell me whether RP-LC retention time is at least 800 s here: CC(C)NC(=O)c1ncn2c1C(=O)N(C1CC1)C(C)(C(=O)NCc1ccc(F)cc1)C2 (centres undefined)
Not fulfilled

Can CC(C)n1cc(S(=O)(=O)NCc2ccccc2Cl)c2cccnc21 be said to have RP-LC retention time at or above 800 s?
Fulfilled

Is the recorded value of RP-LC retention time equal to or greater than 800 s for this compound? O=C(N[C@@H]1CN(c2ccncn2)C[C@H]1CO)c1nccc2ccccc12
Not fulfilled

API: above_or_equal(metric=RP-LC retention time, cutoff=800 s) for item COCc1cn(C2CN(C(=O)COc3ccccc3)C2)nn1
Not fulfilled

Does the reported RP-LC retention time for CCCn1cc(C(=O)NCCN2CCCC2)c2cccnc21 fall at or above the 800 s mark?
Not fulfilled

Confirm if RP-LC retention time reported for the compound COc1cc(OC)c(NS(=O)(=O)c2ccc3c(c2)-c2oncc2CO3)cc1Cl is 800 s or above.
Fulfilled

Exam item: decide whether the reported RP-LC retention time for COc1cc(C(=O)N2CCN(c3cc(N4CCCC4)nc(C)n3)CC2)cc(OC)c1OC is at least 800 s.
Not fulfilled

hey, is RP-LC retention time for this one >= 800 s? Cc1ccc(NC(=O)Nc2nccn(-c3ccc(Br)cc3)c2=O)cc1F
Fulfilled

Say whether COCc1noc([C@@H]2CC(F)(F)CN2C(=O)C2CCC2)n1 shows RP-LC retention time of 800 s or more.
Not fulfilled

Determine whether measured RP-LC retention time meets or exceeds 800 s for CCCc1nc2cccnc2n1C1CCN(C(=O)c2ccc(OC)nc2)C1 (centres undefined)
Not fulfilled

Could you verify whether the entry Cc1ccc(Oc2cccc(C(N)=O)c2)nn1 shows RP-LC retention time of no less than 800 s?
Not fulfilled

Exam item: decide whether the reported RP-LC retention time for CCOC(=O)C1=C(CNC2CCCCC2)NC(=O)NC1c1ccc(C)cc1 (centres undefined) is at least 800 s.
Not fulfilled

RP-LC retention time >= 800 s for CCn1c(=O)oc2cc(-c3noc(-c4cc(SC)ccc4Cl)n3)ccc21 ?
Fulfilled

Is RP-LC retention time at least 800 s? Consider COc1cccc(-c2[nH]ncc2CNS(=O)(=O)c2cc(OC)ccc2OC)c1
Not fulfilled

Confirm if RP-LC retention time reported for the compound Cc1cc(-c2nnc(NC(=O)CS(=O)(=O)c3ccc(Cl)cc3)o2)nn1C is 800 s or above.
Not fulfilled

Evaluate COc1ccc(Cn2nccc2NC(=O)COc2ccc(Cl)cc2)cc1 : RP-LC retention time at minimum 800 s?
Fulfilled

Please check the record CCCNC(=O)C(=O)NCC(c1ccc2c(c1)CCCN2C)N1CCCC1 (centres undefined) and state if its RP-LC retention time is at or above 800 s.
Not fulfilled

Is reported RP-LC retention time greater than or equal to 800 s here: COC(=O)C1=C(C(=O)OC)SC2(S1)C(C(=O)OC)=C(C(=O)OC)Sc1c2ssc1=O
Fulfilled
